These measurements were taken from paper PMC11435058.

Recorded measurements of activity at 10 µM, one per entry
- Tested on: HT29
- ASSAY METHOD TEXT: NCI-60 anticancer screen (SRB; single dose and five doses)
- CONDITION: Homo sapiens, HT-29, 48 h, read-out: Growth Percentage
Kindly answer with a numeric value in %, unit omitted.

Take a look at these entries with their results.
| ENTRY SMILES | PROPERTY MEASURED | UNIT LABEL | REPORTED |
| --- | --- | --- | --- |
| Cc1[nH]c(=S)sc1C(=O)/C=C/c1ccccc1Cl | activity at 10 µM | % | 122 |
| Cc1[nH]c(=S)sc1C(=O)/C=C/c1ccc(Cl)cc1 | activity at 10 µM | % | 31.2 |
| COc1ccc(/C=C/C(=O)c2sc(=S)[nH]c2C)cc1 | activity at 10 µM | % | 96.8 |
| COc1ccc(/C=C/C(=O)c2sc(=S)[nH]c2C)cc1OC | activity at 10 µM | % | 97.7 |
| Cc1[nH]c(=S)sc1C(=O)/C=C/c1ccc(N(C)C)cc1 | activity at 10 µM | % | 94 |

// lookup activity at 10 µM for COc1ccc(/C=C/C(=O)c2sc(=S)[nH]c2C)c(OC)c1
115

---

- Test system: TK-10
- ASSAY METHOD TEXT: NCI-60 anticancer screen (SRB; single dose and five doses)
- CONDITION: Homo sapiens, TK-10, read-out: TGI
Recorded measurements of IC (TGI), one per entry
Kindly answer with a numeric value in µM, unit omitted.

// lookup IC (TGI) for COc1ccc(/C=C\c2cc(OC)c(OC)c(OC)c2)cc1O [CA-4, Combretastatin-A4, reference compound]
11.5

---

// each record: one item and its GI50 for EKVX
Just the number plus its unit, please.

Take a look at these entries with their results.
| MOLECULE | GI50 |
| --- | --- |
| Cc1[nH]c(=S)sc1C(=O)/C=C/c1ccc([N+](=O)[O-])cc1 | 16.4 µM |
| Cc1[nH]c(=S)sc1C(=O)/C=C/c1ccc(Br)cc1 | 10.6 µM |
| Cc1[nH]c(=S)sc1C(=O)/C=C/c1ccc(Cl)cc1 | 12.9 µM |
| Cc1[nH]c(=S)sc1C(=O)/C=C/c1cccc(Cl)c1 | 10.5 µM |
| Cc1[nH]c(=S)sc1C(=O)/C=C/c1cccc([N+](=O)[O-])c1 | 5.75 µM |
| COc1cc(/C=C/C(=O)c2sc(=S)[nH]c2C)cc(OC)c1OC | 4.07 µM |

// lookup GI50 for COc1ccc(/C=C\c2cc(OC)c(OC)c(OC)c2)cc1O [CA-4, Combretastatin-A4, reference compound]
0.36 µM

Next molecule: Cc1[nH]c(=S)sc1C(=O)/C=C/c1ccc(F)cc1
12.8 µM

---

- Test system: SK-MEL-2
- ASSAY METHOD TEXT: NCI-60 anticancer screen (SRB; single dose and five doses)
- CONDITION: Homo sapiens, SK-MEL-2, read-out: TGI
Recorded measurements of IC (TGI), one per entry
Just the number plus its unit, please.

// lookup IC (TGI) for Cc1[nH]c(=S)sc1C(=O)/C=C/c1ccc(F)cc1
24.1 µM

Next compound: Cc1[nH]c(=S)sc1C(=O)/C=C/c1ccc([N+](=O)[O-])cc1
29 µM

Next compound: Cc1[nH]c(=S)sc1C(=O)/C=C/c1ccc(Cl)cc1
28.2 µM

Next compound: Cc1[nH]c(=S)sc1C(=O)/C=C/c1ccc(Br)cc1
19.5 µM

Next compound: Cc1[nH]c(=S)sc1C(=O)/C=C/c1cccc([N+](=O)[O-])c1
26.3 µM

Next compound: COc1cc(/C=C/C(=O)c2sc(=S)[nH]c2C)cc(OC)c1OC
11.5 µM

Next compound: Cc1[nH]c(=S)sc1C(=O)/C=C/c1cccc(Cl)c1
27.5 µM

---

// each record: one item and its GI50 for RPMI-8226
Kindly answer with a numeric value in nM, unit omitted.

Take a look at these entries with their results.
| COMPOUND | GI50 / nM |
| --- | --- |
| COc1cc(/C=C/C(=O)c2sc(=S)[nH]c2C)cc(OC)c1OC [2p] | 2190 |
| Cc1[nH]c(=S)sc1C(=O)/C=C/c1ccc(Cl)cc1 [2f] | 2400 |
| Cc1[nH]c(=S)sc1C(=O)/C=C/c1cccc([N+](=O)[O-])c1 [2h] | 2040 |
| Cc1[nH]c(=S)sc1C(=O)/C=C/c1ccc(F)cc1 [2c] | 2850 |

// lookup GI50 for Cc1[nH]c(=S)sc1C(=O)/C=C/c1ccc([N+](=O)[O-])cc1 [2i]
3550

Next compound: Cc1[nH]c(=S)sc1C(=O)/C=C/c1cccc(Cl)c1 [2e]
2040

Next compound: Cc1[nH]c(=S)sc1C(=O)/C=C/c1ccc(Br)cc1 [2g]
2290

---

- Test system: OVCAR-5
- ASSAY METHOD TEXT: NCI-60 anticancer screen (SRB; single dose and five doses)
- CONDITION: Homo sapiens, OVCAR-5, 48 h, read-out: Growth Percentage
PROPERTY MEASURED: activity at 10 µM
Just the number plus its unit, please.

Take a look at these entries with their results.
| ENTRY SMILES | activity at 10 µM |
| --- | --- |
| COc1ccc(/C=C/C(=O)c2sc(=S)[nH]c2C)c(OC)c1 | 120% |
| Cc1[nH]c(=S)sc1C(=O)/C=C/c1ccccc1 | 129% |

// lookup activity at 10 µM for Cc1[nH]c(=S)sc1C(=O)/C=C/c1cccc([N+](=O)[O-])c1
-37.4%

Next compound: Cc1[nH]c(=S)sc1C(=O)/C=C/c1ccc(N(C)C)cc1
142%

Next compound: Cc1[nH]c(=S)sc1C(=O)/C=C/c1ccccc1Cl
116%

Next compound: COc1cccc(/C=C/C(=O)c2sc(=S)[nH]c2C)c1OC
81.7%

Next compound: COc1cc(/C=C/C(=O)c2sc(=S)[nH]c2C)cc(OC)c1OC
6.56%

Next compound: Cc1[nH]c(=S)sc1C(=O)/C=C/c1cccc(Cl)c1
36.4%

---

- Test system: MDA-MB-468
- ASSAY METHOD TEXT: NCI-60 anticancer screen (SRB; single dose and five doses)
- Type: cell-based, human
- CONDITION: Homo sapiens, MDA-MB-468, MDA-MB-468, Breast Cancer, five dose
Recorded measurements of IC50, one per entry
Kindly answer with a numeric value in µM, unit omitted.

Take a look at these entries with their results.
| ENTRY SMILES | UNIT LABEL | IC50 |
| --- | --- | --- |
| COc1cc(/C=C/C(=O)c2sc(=S)[nH]c2C)cc(OC)c1OC | µM | 5.75 |
| Cc1[nH]c(=S)sc1C(=O)/C=C/c1ccc(Cl)cc1 | µM | 12 |
| Cc1[nH]c(=S)sc1C(=O)/C=C/c1cccc([N+](=O)[O-])c1 | µM | 7.76 |

Now for a further molecule.
// lookup IC50 for Cc1[nH]c(=S)sc1C(=O)/C=C/c1cccc(Cl)c1
12.6

---

- System: OVCAR-8
- ASSAY METHOD TEXT: NCI-60 anticancer screen (SRB; single dose and five doses)
- CONDITION: Homo sapiens, OVCAR-8, read-out: LC50
Lab note: anything with CC50 below 50 µM is marked Yes; values at 50 µM or higher are marked No.

| MOLECULE | ASSIGNED CLASS |
| --- | --- |
| Cc1[nH]c(=S)sc1C(=O)/C=C/c1ccc([N+](=O)[O-])cc1 [2i] | No |

Hello, I'm reviewing records and need to know if CC50 of Cc1[nH]c(=S)sc1C(=O)/C=C/c1cccc(Cl)c1 [2e] is below 50 µM. Could you check?
No

Next molecule: COc1cc(/C=C/C(=O)c2sc(=S)[nH]c2C)cc(OC)c1OC [2p]
Yes

---

- Tested on: MDA-MB-468
Recorded measurements of GI50, one per entry

Take a look at these entries with their results.
| MOLECULE | GI50 |
| --- | --- |
| Cc1[nH]c(=S)sc1C(=O)/C=C/c1ccc(Br)cc1 [2g] | 1.79 µM |
| Cc1[nH]c(=S)sc1C(=O)/C=C/c1ccc(Cl)cc1 [2f] | 2.51 µM |
| Cc1[nH]c(=S)sc1C(=O)/C=C/c1cccc([N+](=O)[O-])c1 [2h] | 2.95 µM |
| Cc1[nH]c(=S)sc1C(=O)/C=C/c1ccc([N+](=O)[O-])cc1 [2i] | 2.2 µM |
| COc1cc(/C=C/C(=O)c2sc(=S)[nH]c2C)cc(OC)c1OC [2p] | 1.55 µM |
| Cc1[nH]c(=S)sc1C(=O)/C=C/c1ccc(F)cc1 [2c] | 1.93 µM |

Now for a further molecule.
// lookup GI50 for Cc1[nH]c(=S)sc1C(=O)/C=C/c1cccc(Cl)c1 [2e]
3.8 µM
